Here the recorded IC50 of pNF-κB, NCI/ADR-RES cells stimulated with IL-36β is given for each entry.
Target: T1, human IL-36R (human, UniProt Q9HB29 20-575)
T1 sequence (looked up): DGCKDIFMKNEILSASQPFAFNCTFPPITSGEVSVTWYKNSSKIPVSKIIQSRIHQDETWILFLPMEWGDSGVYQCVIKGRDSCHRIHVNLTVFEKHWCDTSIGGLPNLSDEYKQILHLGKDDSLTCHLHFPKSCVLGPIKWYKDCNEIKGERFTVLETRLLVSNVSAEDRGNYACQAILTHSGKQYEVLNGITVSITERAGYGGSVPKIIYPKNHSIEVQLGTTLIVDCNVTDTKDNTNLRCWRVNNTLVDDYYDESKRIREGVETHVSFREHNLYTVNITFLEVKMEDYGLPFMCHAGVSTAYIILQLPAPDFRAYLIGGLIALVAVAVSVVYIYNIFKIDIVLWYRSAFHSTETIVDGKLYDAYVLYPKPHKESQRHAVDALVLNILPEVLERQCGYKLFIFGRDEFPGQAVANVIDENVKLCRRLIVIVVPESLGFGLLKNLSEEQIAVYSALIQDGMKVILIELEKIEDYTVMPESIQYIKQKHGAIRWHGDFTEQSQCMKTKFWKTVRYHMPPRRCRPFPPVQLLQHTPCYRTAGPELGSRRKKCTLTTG
Assay: cell-based or functional assay
Parameter measured: IC50 of pNF-κB, NCI/ADR-RES cells stimulated with IL-36β (ng/mL)

| Binder | Unit | Experimental value |
| --- | --- | --- |
| humanized anti-IL-36R antibody 900513 (antibody, V domains shown, IgG1 (vector with L234A, L235A) and human kappa) VH: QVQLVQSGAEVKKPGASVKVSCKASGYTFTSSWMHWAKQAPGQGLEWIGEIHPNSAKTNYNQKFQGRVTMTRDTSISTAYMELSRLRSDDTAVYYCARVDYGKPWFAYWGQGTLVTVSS VL: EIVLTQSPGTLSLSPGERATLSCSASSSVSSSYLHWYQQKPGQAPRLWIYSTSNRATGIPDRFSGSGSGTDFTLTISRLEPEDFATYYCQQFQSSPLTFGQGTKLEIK | ng/mL | 105 |
| humanized anti-IL-36R antibody 900534 (antibody, V domains shown, IgG1 (vector with L234A, L235A) and human kappa) VH: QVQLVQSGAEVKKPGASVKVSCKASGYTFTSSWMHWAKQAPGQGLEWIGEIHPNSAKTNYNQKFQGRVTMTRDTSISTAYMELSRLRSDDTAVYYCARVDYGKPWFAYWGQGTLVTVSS VL: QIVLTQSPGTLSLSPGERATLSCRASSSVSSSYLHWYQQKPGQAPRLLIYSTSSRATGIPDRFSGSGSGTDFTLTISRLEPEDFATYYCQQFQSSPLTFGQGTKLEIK | ng/mL | 64.9 |
| anti-IL-36R chimeric antibody 900497 (antibody, V domains shown, Human-mouse chimera: human IgG1 heavy constant region with L234A and L235A (Eu numbering), human kappa light constant region) VH: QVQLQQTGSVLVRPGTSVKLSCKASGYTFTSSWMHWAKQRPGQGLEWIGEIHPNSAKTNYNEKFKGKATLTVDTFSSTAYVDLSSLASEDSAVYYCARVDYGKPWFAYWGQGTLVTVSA VL: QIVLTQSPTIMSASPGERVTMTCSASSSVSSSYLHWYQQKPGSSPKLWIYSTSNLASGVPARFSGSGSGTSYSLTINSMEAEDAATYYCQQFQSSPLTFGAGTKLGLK | ng/mL | 115 |
| humanized anti-IL-36R antibody 900527 (antibody, V domains shown, IgG1 (vector with L234A, L235A) and human kappa) VH: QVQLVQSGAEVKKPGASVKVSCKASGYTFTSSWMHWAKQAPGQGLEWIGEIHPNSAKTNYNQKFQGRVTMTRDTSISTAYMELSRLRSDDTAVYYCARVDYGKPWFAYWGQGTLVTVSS VL: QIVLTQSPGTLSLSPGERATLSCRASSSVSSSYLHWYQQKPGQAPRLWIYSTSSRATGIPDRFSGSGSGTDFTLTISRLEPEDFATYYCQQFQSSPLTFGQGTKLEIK | ng/mL | 71.4 |
